Test system: synthetic oligopeptides
Assay type: biochemical
Settings: substrate […] (SEQ ID NO:6), 4 mM oligopeptide, pH 7.5, 37° C.
Answer each item with its documented Specific activity (unit/mg).
One number for each entry, in unit/mg.

• MetAP-*TT (protein) AISIKTPEDIEKMRVAGRLAAEVLEMIEPYVKPGVSTGELDRICNDYIVNEQHAVSACLGYHGYPKSVCISINEVVCHGIPDDAKLLKDGDIVNIDVTVIKDGFHGDTSKMFIVGKPTIMGERLCRITQESLYLALRMVKPGINLREIGAAIQKFVEAEGFSVVREYCGHGIGRGFHEEPQVLHYDSRETNVVLKPGMTFTIEPTVNAGKKEIRTMKDGWTVKTKDRSLSATYEHTIVVTDNGCEILTLRKDDTIPAIISHDE = 0.25

Now look at this entry.
Task: Requested field: Specific activity (unit/mg). Item: MetAP-GTG (protein) AISIKTPEDIEKMRVAGRLAAEVLEMIEPYVKPGVSTGELDRICNDYIVNEQHAVSACLGYHGYPKSVCISINEVVCHGIPDDAKLLKDGDIVNIDVTVIKDGFHGDTSKMFIVGKPTIMGERLCRITQESLYLALRMVKPGINLREIGAAIQKFVEAEGFSVVREGCGHGIGRGFHEEPQVLHYDSRETNVVLKPGMTFTIEPTVNAGKKEIRTMKDGWTVKTKDRSLSAGYEHTIVVTDNGCEILTLRKDDTIPAIISHDE
Result: 4.24

The measurements presented in this section are drawn from patent US7109015B2.
